tested on: HepG2 cells; assay: MTT cell viability assay, HepG2; type: cell-based; conditions: Homo sapiens, 48 h, read-out: Half inhibitory concentration (IC50), HepG2
# IC50 values compiled below

{"compound": "O=C1/C(=C/c2ccc(Cl)cc2)CC(/C=C/c2ccc(Cl)cc2)(C(=O)NC2CCCCC2)N1c1ccc(F)cc1 (stereo not drawn) [RPDPRH]", "IC50": "12.4 µM"}
{"compound": "O=C1/C(=C/c2ccc(Cl)cc2)CC(/C=C/c2ccccc2)(C(=O)NC2CCCCC2)N1c1ccc(Cl)cc1 (stereo not drawn) [RPDPRK]", "IC50": "> 100 µM"}

Looking for the measured IC50 of O=C1/C(=C/c2ccccc2)CC(/C=C/c2ccccc2)(C(=O)NC2CCCCC2)N1c1ccc(Cl)cc1 (stereo not drawn) [RPDPRI] , can you help?
> 100 µM

----------
tested on: HeLa cells; assay: MTT cell viability assay, HeLa; format: cell-based; conditions: Homo sapiens, 48 h, read-out: Half inhibitory concentration (IC50), HeLa
measure: pIC50
# reply with the number alone; pIC50 is -log10 of concentration in mol/L

{"compound": "O=C1/C(=C/c2ccc(Cl)cc2)CC(/C=C/c2ccccc2)(C(=O)NC2CCCCC2)N1c1ccc(Cl)cc1 (stereo not drawn)", "measure": "pIC50", "observedResult": 4.35}

Turning now to a further record.
Any idea what pIC50 was measured for O=C1/C(=C/c2ccc(Cl)cc2)CC(/C=C/c2ccc(Cl)cc2)(C(=O)NC2CCCCC2)N1c1ccc(F)cc1 (stereo not drawn) ?
4.82
